Numbers sourced from patent US20210309732A1.

# measurement_target: T1, recombinant human GM-CSF (human, UniProt P04141 18-144)
# T1 construct: also called rhGM-CSF; CSF2
# T1 sequence (P04141 18-144 limits assumed): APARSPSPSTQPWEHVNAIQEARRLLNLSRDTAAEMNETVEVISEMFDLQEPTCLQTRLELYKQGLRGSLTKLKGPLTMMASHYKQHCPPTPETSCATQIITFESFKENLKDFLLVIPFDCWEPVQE
# experiment_summary: ELISA on coated rhGM-CSF, UBA relative to 1D2
# Description: Some of the residues in the CDRs are essential for epitope binding affinity and/or specificity. A number of computational methods were developed to detect these functional residues, generally known as ‘specificity-determining resides’ (SDRs). […] The ELISA assay was developed with 100 μl developing buffer containing H₂O₂-Amplx Red per well in the dark for 5 min and the fluorescence intensity was read at Ex.530/Em.590 nm, with cutoff at 570 nm. […]
Each item that follows carries a reported binding affinity % of 1D2.
The response must be a number in % with no trailing unit.

// solved cases for binding affinity % of 1D2 follow
>  <binder>
1D2 SDR mutant LV32F (antibody, IgG1, V domains shown, also called X8 F) VH: QVQLVQSGAEVKKPGASVKVSCEASGYTFTDKYLHWVRQAPGQGLEWMAWINPKSGGTFYAQNFKGRVTVTRDTSINTAYLELTSLRLDDTSTYYCARGRDYYDQGAADLWGQGTMVTVSS VL: DIQLTQSPSSLSASVGDRVTITCRASQGINSFLAWYQQKPGKAPKLLLYAASKLESGVPSRFSGSGSGTDYTLTISSLQPEDFGTYYCQQYYSPVRTFGQGTKVEIKR

>  <metric_name>
binding affinity % of 1D2

>  <reported_result>
109

$$$$
>  <binder>
1D2 SDR mutant HR100Q (antibody, IgG1, V domains shown, also called X4 Q) VH: QVQLVQSGAEVKKPGASVKVSCEASGYTFTDKYLHWVRQAPGQGLEWMAWINPKSGGTFYAQNFKGRVTVTRDTSINTAYLELTSLRLDDTSTYYCARGQDYYDQGAADLWGQGTMVTVSS VL: DIQLTQSPSSLSASVGDRVTITCRASQGINSVLAWYQQKPGKAPKLLLYAASKLESGVPSRFSGSGSGTDYTLTISSLQPEDFGTYYCQQYYSPVRTFGQGTKVEIKR

>  <metric_name>
binding affinity % of 1D2

>  <reported_result>
57

$$$$

Now look at this one.
Asked: What measured binding affinity % of 1D2 goes with 1D2 SDR mutant HD31S (antibody, IgG1, V domains shown, also called X1 S) VH: QVQLVQSGAEVKKPGASVKVSCEASGYTFTSKYLHWVRQAPGQGLEWMAWINPKSGGTFYAQNFKGRVTVTRDTSINTAYLELTSLRLDDTSTYYCARGRDYYDQGAADLWGQGTMVTVSS VL: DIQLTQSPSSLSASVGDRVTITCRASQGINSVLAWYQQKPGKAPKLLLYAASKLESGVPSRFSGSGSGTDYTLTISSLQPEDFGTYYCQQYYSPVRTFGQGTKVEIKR ?
Given back: 47
